Assay: Mouse hepatocyte stability
Format: in vitro ADME
Conditions: mouse hepatocytes, clearance
MEASURED ATTRIBUTE: Cl (ml/minute/g liver)

A: O=C(c1[nH]ncc1Cl)N1CCC[C@H]1c1ccccc1-c1cccc(O)c1 (single isomer, unassigned)
B: O=C(c1sccc1Cl)N1CCC[C@H]1c1ccccc1-c1cccc(O)c1 (single isomer, unassigned)
C: Cc1ccsc1C(=O)N(CC(C)C)c1cccc(N(C)Cc2c[nH]cn2)c1
D: O=C(C(c1ccccc1)n1cnc2[nH]ncc2c1=S)N1CCCCCC1 (centres unmarked) [AG18051, reference compound]
Query string: Sort key = Cl. Sort direction = ascending. Apply to the list above. Write out the labels following the order that was asked for.
Result string: C, A, D, B
(C: 7.2 ml/minute/g liver, A: 21.9 ml/minute/g liver, D: 50.5 ml/minute/g liver, B: 105.8 ml/minute/g liver)

A: Cc1ccsc1C(=O)N1CCC[C@H]1c1ccccc1-c1cccc(Cl)c1 (single isomer, unassigned)
B: Cc1ccc(C(=O)N(CC(C)C)c2cccc(N(C)Cc3c[nH]cn3)c2)c(F)c1
Query string: Could you tell me which of these two has the smaller Cl figure? First: A Second: B Answer by quoting the chosen item's label.
Result string: B

P: COc1cccc(-c2ccccc2[C@@H]2CCCN2C(=O)c2[nH]ncc2Cl)c1 (single isomer, unassigned)
Q: CC(C)CN(C(=O)c1c(F)cccc1F)c1cccc(N(C)Cc2c[nH]cn2)c1
Query string: Please choose the item with the lower Cl value from this pair: P and Q Please indicate the selected item by its label.
Result string: Q
(Q: 8.6 ml/minute/g liver, P: 62.4 ml/minute/g liver)

====

Tested on: mtsABAD HEK293 cells
Test: Lactate dehydrogenase (LDH) cytotoxicity assay
Type: cell-based, human
Details: 50 μM compound
MEASURED ATTRIBUTE: LDH % Toxicity (50 μM Dose) (%)
Entry rule: numbers only, all in %.

MOLECULE: Cc1ccsc1C(=O)N1CCC[C@H]1c1ccccc1-c1cccc(C)c1C [ESC1002339]
LDH % Toxicity (50 μM Dose) (%): 4.39

MOLECULE: Cc1ccccc1-c1ccccc1[C@@H]1CCCN1C(=O)c1sccc1C [ESC1002323]
LDH % Toxicity (50 μM Dose) (%): 5.03

MOLECULE: COc1ccc(-c2ccccc2[C@H]2CCCN2C(=O)c2sccc2C)cn1 (single isomer, unassigned) [ESC1002162]
LDH % Toxicity (50 μM Dose) (%): 6.843

Shift focus to the following entry.
Query string: Fill in the recorded LDH % Toxicity (50 μM Dose) for this molecule, with mtsABAD HEK293 cells as test system: CC(C)CN(C(=O)C(C)C)c1cccc(N(C)Cc2cnc[nH]2)c1 [ESC1002165]
Result string: 4.074

====

Target: 17β-HSD10 (Homo sapiens, UniProt Q99714)
Construct: Histev (histidine tag with TEV site) (N, cleaved yes); made in house; host or cells: E. coli BL21-CodonPlus
Sequence (Q99714 whole entry): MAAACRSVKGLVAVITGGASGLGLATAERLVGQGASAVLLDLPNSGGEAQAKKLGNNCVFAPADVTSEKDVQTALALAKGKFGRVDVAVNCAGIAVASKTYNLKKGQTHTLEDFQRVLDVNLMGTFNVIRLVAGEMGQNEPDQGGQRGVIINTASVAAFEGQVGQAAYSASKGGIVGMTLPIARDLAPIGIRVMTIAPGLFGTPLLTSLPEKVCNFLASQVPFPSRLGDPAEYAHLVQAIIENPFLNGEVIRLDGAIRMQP
Assay: 17β-HSD10 (ABAD) enzyme inhibition assay, NADH oxidation read at 340 nm (primary screen and dose response)
Assay type: biochemical
Settings: recombinant 17βHSD10 enzyme assay, curve fit
Procedure: Cell pellets of E. coli BL21-CodonPlus cells containing Histev-17β-HSD10 protein were re-suspended for 30 min, 4° C., in lysis buffer (20 mM NaH2PO4, 30 mM imidazole, 500 mM NaCl, 10% (v/v) glycerol, pH 7.5) with the addition of complete ethylenediaminetetraacetic acid (EDTA)-free protease inhibitor tablets (Roche), lysozyme (1 mg/mL), deoxyribonuclease (DNase) (20 μg/mL) and Triton X-100 (0.1% (v/v)). […]
MEASURED ATTRIBUTE: Max. Fit

COMPOUND: CCOc1cccc(-c2ccccc2[C@@H]2CCCN2C(=O)c2sccc2Cl)c1 (racemic) [ESC1002664]
READOUT NUMBER: 92
//
COMPOUND: CC(C)CN(C(=O)c1ccccc1F)c1cccc(N(C)Cc2ccn[nH]2)c1 [ESC1002205]
READOUT NUMBER: 97
//
COMPOUND: CC(C)OCCN(C(=O)c1ccccc1F)c1cccc(N(C)Cc2c[nH]cn2)c1 [ESC1002267]
READOUT NUMBER: 103
//
COMPOUND: Cc1ccc(-c2ccccc2[C@@H]2CCCN2C(=O)c2sccc2C)cc1 [ESC1002337]
READOUT NUMBER: 99
//
COMPOUND: Cc1ccc(C(=O)N(CC2CC2)c2cccc(N(C)Cc3c[nH]cn3)c2)cc1 [ESC1002399]
READOUT NUMBER: 99
//
COMPOUND: CC(C)CN(C(=O)c1ccccc1C(F)(F)F)c1cccc(N(C)Cc2c[nH]cn2)c1 [ESC1002493]
READOUT NUMBER: 104
//
COMPOUND: CC(C)CN(C(=O)c1ccccc1F)c1cccc(N(C)Cc2cc[nH]n2)n1 [ESC1002796]
READOUT NUMBER: 100
//
COMPOUND: O=C(c1sccc1Cl)N1CCC[C@H]1c1ccccc1-c1ccc2[nH]ncc2c1 (racemic) [ESC1002701]
READOUT NUMBER: 96

====

Biological target: 17β-HSD10 (Homo sapiens)
Construct: Histev (histidine tag with TEV site) (N, cleaved yes)
Assay: 17β-HSD10 (ABAD) enzyme inhibition assay, NADH oxidation read at 340 nm (primary screen and dose response)
Settings: recombinant 17βHSD10 enzyme assay
pEC50: −log10 of the molar value.
MEASURED ATTRIBUTE: pEC50

Sample answers from the record:
COMPOUND: Cc1ccsc1C(=O)N1CCC[C@H]1c1ccccc1-c1cnn(C2CCOCC2)c1
MEASURED ATTRIBUTE: pEC50
READOUT NUMBER: 5.79

COMPOUND: Cc1ccsc1C(=O)N1CCC[C@H]1c1ccccc1-c1cccc(C)c1C
MEASURED ATTRIBUTE: pEC50
READOUT NUMBER: 6.28

COMPOUND: CC(C)CN(C(=O)c1ccncc1)c1cccc(N(C)Cc2cnc[nH]2)c1
MEASURED ATTRIBUTE: pEC50
READOUT NUMBER: 5.80

COMPOUND: COc1ccc(-c2ccccc2[C@@H]2CCCN2C(=O)c2sccc2C)cc1 (single isomer, unassigned)
MEASURED ATTRIBUTE: pEC50
READOUT NUMBER: 6.78

COMPOUND: COc1cccc(-c2ccccc2[C@@H]2CCCN2C(=O)c2sccc2C)c1 (single isomer, unassigned) [ESC1002421]
MEASURED ATTRIBUTE: pEC50
READOUT NUMBER: 6.73

COMPOUND: CCCC(=O)N(CC(C)C)c1cccc(N(C)Cc2cnc[nH]2)c1
MEASURED ATTRIBUTE: pEC50
READOUT NUMBER: 5.53

COMPOUND: CC(C)CN(C(=O)c1ccccc1C(F)(F)F)c1cccc(N(C)Cc2c[nH]cn2)c1
MEASURED ATTRIBUTE: pEC50
READOUT NUMBER: 6.01

COMPOUND: Cc1ccsc1C(=O)N1CCC[C@H]1c1ccccc1-c1ccccc1Cl [ESC1002324]
MEASURED ATTRIBUTE: pEC50
READOUT NUMBER: 6.53

COMPOUND: CC(C)CN(C(=O)c1ccc(F)cc1F)c1cccc(N(C)Cc2c[nH]cn2)c1
MEASURED ATTRIBUTE: pEC50
READOUT NUMBER: 6.34

COMPOUND: Cc1ccsc1C(=O)N1CCC[C@@H]1c1ccccc1-c1ccc(C2CC2)cc1
MEASURED ATTRIBUTE: pEC50
READOUT NUMBER: 6.25

1: CC(C)CN(C(=O)c1ccccc1)c1cccc(N(C)Cc2cnc[nH]2)c1
2: CC(C)CN(C(=O)Cc1ccccc1)c1cccc(N(C)Cc2cnc[nH]2)c1
Query string: Given 1 and 2 , report the one with the higher recorded pEC50. Your choice should be expressed through its label.
Result string: 1

====

Molecular target: 17β-HSD10 (Homo sapiens, UniProt Q99714)
Construct: Histev (histidine tag with TEV site) (N, cleaved yes); made in house; host or cells: E. coli BL21-CodonPlus
Test: 17β-HSD10 (ABAD) enzyme inhibition assay, NADH oxidation read at 340 nm (primary screen and dose response)
Assay type: biochemical
Settings: recombinant 17βHSD10 enzyme assay, curve fit
MEASURED ATTRIBUTE: Hill Slope

COMPOUND: Cc1ccsc1C(=O)N1CCC[C@@H]1c1ccccc1-c1cnn(C2CCNCC2)c1
Hill Slope: 1

COMPOUND: O=C(c1sccc1Cl)N1CCC[C@H]1c1ccccc1-c1cc(O)cc(F)c1 (racemic) [ESC1002776]
Hill Slope: 1

COMPOUND: COc1cccc(-c2ccccc2[C@@H]2CCCN2C(=O)c2ncc[nH]2)c1 (racemic)
Hill Slope: 1.2

COMPOUND: O=C(c1sccc1Cl)N1CCC[C@H]1c1ccccc1-c1ccc(F)c(O)c1 (single isomer, unassigned) [ESC1002839]
Hill Slope: 1.1

COMPOUND: CC(C)CN(C(=O)c1ccc(Cl)s1)c1cccc(N(C)Cc2c[nH]cn2)c1
Hill Slope: 1

COMPOUND: CN(Cc1c[nH]cn1)c1cccc(N(CC(C)(C)C)C(=O)c2ccccc2F)c1
Hill Slope: 0.87

COMPOUND: CC(C)CN(C(=O)c1ccc(Cl)cc1F)c1cccc(N(C)Cc2cnc[nH]2)c1
Hill Slope: 0.8

COMPOUND: Cc1ccsc1C(=O)N1CCC[C@H]1c1ccccc1-c1cccc(C(F)(F)F)c1 (racemic) [ESC1002790]
Hill Slope: 1.2
